molecular target: Protein kinase C eta type (Homo sapiens); settings: at 0.1 µM;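 also: values are the mean percent inhibition of PKC-eta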
Readout Kind: inhibition (%)
Provide the reading as a plain figure in %.

Below, 3 compounds whose answers are already recorded.
Briefly, inhibition measured for [O-][S+]1CCN(Cc2ccc(-c3ccc4ncnc(Nc5ccc(OCc6ccccc6)c(F)c5)c4c3)o2)CC1 : 0.68

Briefly, inhibition measured for CCn1c(-c2nonc2N)nc2cnc(Oc3cccc(NC(=O)c4ccc(OCCN5CCOCC5)cc4)c3)cc21 : 71.2

Briefly, inhibition measured for COc1cc2ncn(-c3cc(OCc4ccccc4Cl)c(C(N)=O)s3)c2cc1OC : 1.47

Please find the next compound below.
Briefly, inhibition measured for COc1cc2ncn(-c3cc(O[C@H](C)c4ccccc4Cl)c(C(N)=O)s3)c2cc1OC : 4.41

---

target: Ephrin type-A receptor 2 (Homo sapiens); conditions: at 1 µM;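 also: value is the mean inhibition of EPHA2, measured in the GSK PKIS screen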
The compounds listed here are annotated with their inhibition.

Simply: CCCN1CCC(Oc2cc(Nc3nc(Nc4cccc(F)c4C(N)=O)c4cc[nH]c4n3)c(OC)cc2Cl)CC1 , Ephrin type-A receptor 2 (Homo sapiens), inhibition = 0.75%

Simply: CCn1c(-c2nonc2N)nc2c(C#CC(C)(C)O)nc(CN3CCCC3)cc21 , Ephrin type-A receptor 2 (Homo sapiens), inhibition = -2.75%

Simply: Nc1ncnc2occ(-c3ccc(NC(=O)Nc4cc(C(F)(F)F)cc(C(F)(F)F)c4)cc3)c12 , Ephrin type-A receptor 2 (Homo sapiens), inhibition = 42%

Simply: CC(C)=Cc1cccc2c1/C(=N/Nc1ccc(S(N)(=O)=O)cc1)C(=O)N2 , Ephrin type-A receptor 2 (Homo sapiens), inhibition = 3.1%

---
Simply: Nc1ncnc2occ(-c3ccc(NC(=O)Nc4cccc(C(F)(F)F)c4)cc3)c12 , Ephrin type-A receptor 2 (Homo sapiens), inhibition = 85%

---

The compounds listed here are annotated with their inhibition.
biological target: Calcium/calmodulin-dependent protein kinase type II subunit delta (Homo sapiens) (UniProt Q13557); details: at 0.1 µM;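 also: percent inhibition values are means, taken from the GSK PKIS kinase profiling set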
Sequence (Q13557 whole entry): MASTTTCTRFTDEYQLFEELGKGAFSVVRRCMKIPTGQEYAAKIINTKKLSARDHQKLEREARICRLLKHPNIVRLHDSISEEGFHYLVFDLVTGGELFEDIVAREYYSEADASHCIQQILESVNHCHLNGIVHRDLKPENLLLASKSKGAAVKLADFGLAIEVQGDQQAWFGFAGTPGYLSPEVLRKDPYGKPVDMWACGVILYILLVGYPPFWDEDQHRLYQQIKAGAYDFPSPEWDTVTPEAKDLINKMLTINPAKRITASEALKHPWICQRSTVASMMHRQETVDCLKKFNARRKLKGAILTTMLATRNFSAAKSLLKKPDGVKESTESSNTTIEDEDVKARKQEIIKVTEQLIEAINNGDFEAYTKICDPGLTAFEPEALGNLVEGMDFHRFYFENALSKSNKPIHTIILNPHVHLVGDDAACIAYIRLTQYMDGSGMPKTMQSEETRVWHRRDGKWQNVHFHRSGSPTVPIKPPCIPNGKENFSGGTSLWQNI
Provide the reading as a plain figure in %.

Below, 5 compounds whose answers are already recorded.
Briefly, inhibition measured for CC1=C(C(=O)Nc2ccc3[nH]ncc3c2)C(c2ccc(F)cc2)NC(=O)N1 (stereo unspecified) : 1.48

Briefly, inhibition measured for CC(=O)Nc1cccc(C#Cc2cncnc2Nc2ccc(OCc3cccc(F)c3)c(Cl)c2)n1 : -0.74

Briefly, inhibition measured for O=C(Nc1n[nH]c2nc(-c3ccco3)c(Br)cc12)C1CC1 : 3.12

Briefly, inhibition measured for NCc1ccc(-c2nc(-c3ccc(Cl)c(O)c3)c(-c3ccncc3)[nH]2)cc1 : -0.18

Briefly, inhibition measured for COc1cc(C=NNc2ncnc3c2cnn3-c2ccccc2)ccc1O : 3.65

---
Briefly, inhibition measured for CCc1cccc(NC(=O)Nc2ccc(Oc3ccc4nc(NC(=O)OC)[nH]c4c3)cc2)c1 : 1.51

---

biological target: Serine/threonine-protein kinase MRCK beta (Homo sapiens); details: at 0.1 µM;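 also: values are mean percent inhibition of MRCKB, screened as part of the GSK PKIS kinase inhibitor set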
The compounds listed here are annotated with their inhibition.
Provide the reading as a plain figure in %.

Briefly, inhibition measured for COc1ccc2cc(-c3c(-c4ccncc4)nc(-c4ccc([S+](C)[O-])cc4)n3C)ccc2c1 (stereo not drawn) : 0.92

Briefly, inhibition measured for Cn1cc(C=C2C(=O)Nc3cccnc32)c2ccccc21 : 1.17

Please find the next compound below.
Briefly, inhibition measured for O=C1NC(=O)C(c2ccc(Cl)cc2)=C1Nc1ccc(Cl)c(C(=O)O)c1 : 0.31

---

The compounds listed here are annotated with their inhibition.
biological target: Aurora kinase A (Homo sapiens) (UniProt O14965); conditions: at 0.1 µM;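 also: each reported value is a mean percent inhibition of Aurora-A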
Sequence (O14965 whole entry): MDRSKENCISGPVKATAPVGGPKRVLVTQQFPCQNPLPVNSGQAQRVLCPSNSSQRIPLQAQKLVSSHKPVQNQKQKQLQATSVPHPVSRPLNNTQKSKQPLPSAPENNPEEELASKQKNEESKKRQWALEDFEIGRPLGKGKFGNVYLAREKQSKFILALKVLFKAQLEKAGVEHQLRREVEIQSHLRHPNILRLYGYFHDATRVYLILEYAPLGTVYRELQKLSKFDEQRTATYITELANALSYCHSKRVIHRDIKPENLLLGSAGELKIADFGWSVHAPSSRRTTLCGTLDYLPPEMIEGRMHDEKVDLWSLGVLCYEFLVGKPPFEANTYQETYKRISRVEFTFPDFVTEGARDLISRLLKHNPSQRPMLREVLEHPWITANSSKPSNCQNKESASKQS
Provide the reading as a plain figure in %.

Briefly, inhibition measured for COc1cc2c(cc1Nc1nc(N3CCc4ccccc43)c3cc[nH]c3n1)N(C(=O)CN(C)C)CC2 : 1.58

Briefly, inhibition measured for COC(=O)Nc1nc2cc(Oc3ccc(NC(=O)Nc4cccc(C(=O)O)c4)cc3)ccc2[nH]1 : -1.89

Briefly, inhibition measured for COc1cc2ncn(-c3cc(O[C@@H](C)c4ccccc4Cl)c(C(N)=O)s3)c2cc1OC : 4.95

Briefly, inhibition measured for CCn1c(-c2nonc2N)nc2ccncc21 : 2.36

Briefly, inhibition measured for Nc1ncnc2occ(-c3ccc(NC(=O)Nc4cccc(C(F)(F)F)c4)cc3)c12 : 9.27

Briefly, inhibition measured for O=C(Nc1n[nH]c2nc(-c3ccco3)c(Br)cc12)C1CC1 : 2.52

Briefly, inhibition measured for CCn1c(-c2nonc2N)nc2c(N3CCCC3)nccc21 : -1.86

Briefly, inhibition measured for COc1cc(C=NNc2ncnc3c2cnn3-c2ccccc2)ccc1O : 23

---
Briefly, inhibition measured for COc1cc2ncn(-c3cc(OCc4ccccc4Cl)c(C(N)=O)s3)c2cc1OC : 1.9

Briefly, inhibition measured for COc1cc(C)c(NC(=O)CN(C)C)cc1Nc1nc(Nc2cccc(F)c2C(N)=O)c2cc[nH]c2n1 : 2.06

Briefly, inhibition measured for CS(=O)(=O)CCN(CC#N)Cc1ccc(-c2ccc3ncnc(Nc4ccc(OCc5cccc(F)c5)c(Cl)c4)c3c2)o1 : -2.58

Briefly, inhibition measured for NCc1ccc(-c2nc(-c3ccc(Cl)c(O)c3)c(-c3ccncc3)[nH]2)cc1 : 1.53

Briefly, inhibition measured for CC(C)=Cc1cccc2c1/C(=N/Nc1ccc(S(N)(=O)=O)cc1)C(=O)N2 : 25.6

Briefly, inhibition measured for COc1cc2ncn(-c3cc(OCc4ccccc4C(F)(F)F)c(C(N)=O)s3)c2cc1OC : 1.39

---

biological target: Serine/threonine-protein kinase PAK 1 (Homo sapiens); settings: at 0.1 µM;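 also: values are mean PAK1 inhibition from the GSK PKIS kinase inhibitor set screen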
The compounds listed here are annotated with their inhibition.
Provide the reading as a plain figure in %.

Simply: N#Cc1c(NC(=O)c2cccc3ccccc23)sc2c1CCCC2 , Serine/threonine-protein kinase PAK 1 (Homo sapiens), inhibition = 5.02

Simply: Nc1nc(-c2ccc3c(c2)C(=Cc2cc(Br)c(O)c(Br)c2)C(=O)N3)cs1 , Serine/threonine-protein kinase PAK 1 (Homo sapiens), inhibition = 2.87

Simply: CS(=O)(=O)CCNCc1nc(-c2ccc3ncnc(Nc4ccc(F)c(Cl)c4)c3c2)cs1 , Serine/threonine-protein kinase PAK 1 (Homo sapiens), inhibition = 2.77

Simply: Cc1nn(C)c2cc(N(C)c3ccnc(Nc4cccc(S(N)(=O)=O)c4)n3)ccc12 , Serine/threonine-protein kinase PAK 1 (Homo sapiens), inhibition = 5.87

Simply: NC(=O)c1cccc(Nc2nccc(Nc3cccc4[nH]ncc34)n2)c1 , Serine/threonine-protein kinase PAK 1 (Homo sapiens), inhibition = -5.7

---

The compounds listed here are annotated with their inhibition.
target: Serine/threonine-protein kinase Nek7 (Homo sapiens) (UniProt Q8TDX7); conditions: at 0.1 µM;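 also: figures are averaged percent inhibition of NEK7 kinase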
Sequence (Q8TDX7 whole entry, looked up): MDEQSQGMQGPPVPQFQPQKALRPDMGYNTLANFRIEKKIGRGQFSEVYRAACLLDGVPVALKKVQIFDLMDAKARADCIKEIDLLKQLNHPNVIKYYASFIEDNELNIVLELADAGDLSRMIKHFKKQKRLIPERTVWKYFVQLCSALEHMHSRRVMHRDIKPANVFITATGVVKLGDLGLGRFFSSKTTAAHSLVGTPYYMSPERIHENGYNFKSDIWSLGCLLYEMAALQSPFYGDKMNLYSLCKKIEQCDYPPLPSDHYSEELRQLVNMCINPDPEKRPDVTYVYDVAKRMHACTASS
Provide the reading as a plain figure in %.

Briefly, inhibition measured for COc1ccc(-c2nn3ncccc3c2-c2ccnc(Nc3ccc(Cl)c(C(F)(F)F)c3)n2)cc1 : 3.34

---
Briefly, inhibition measured for COc1cc2c(cc1Nc1nc(N3CCc4ccccc43)c3cc[nH]c3n1)N(C(=O)CN(C)C)CC2 : 3.4

Briefly, inhibition measured for CN1CCC(C(=O)Nc2n[nH]c3nnc(-c4ccccc4)cc23)CC1 : 5.74

Briefly, inhibition measured for COc1ccc2cc(-c3c(-c4ccncc4)nc(-c4ccc([S+](C)[O-])cc4)n3C)ccc2c1 (stereo not drawn) : 2.77

Briefly, inhibition measured for CN(C)c1cc2c(Nc3ccc4nc(Cc5ccccc5)[nH]c4c3)ncnc2cn1 : 6.44

Briefly, inhibition measured for Nc1ncnc2occ(-c3ccc(NC(=O)Nc4cc(C(F)(F)F)cc(C(F)(F)F)c4)cc3)c12 : 2.34

Briefly, inhibition measured for COc1ccc(-c2ccncc2)cc1C(N)=O : 3.68

Briefly, inhibition measured for O=C1NC(=O)C(N2CCc3ccccc32)=C1c1ccc(Cl)cc1 : 6.9

Briefly, inhibition measured for Cn1cc(C=C2C(=O)Nc3cccnc32)c2ccccc21 : 3.8

Briefly, inhibition measured for Nc1ncnc2occ(-c3ccc(NC(=O)Nc4cccc(C(F)(F)F)c4)cc3)c12 : 2.42

---

biological target: Tyrosine-protein kinase Lyn (Homo sapiens); settings: at 0.1 µM;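 also: mean inhibition of the LYN B splice variant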
Description: GSK_PKIS: LYN B (splice variant) mean inhibition at 0.1 uM [Nanosyn]
Entries get a class label from measured inhibition. See ranges: category 1: < 2%; category 2: ≥ 2% and < 4%; category 3: ≥ 4%

Assign a category based on measured inhibition for CCn1c(-c2nonc2N)nc2cnc(Oc3cccc(NC(=O)c4ccc(OCCN5CCOCC5)cc4)c3)cc21 and give only the class name.
category 2

Assign a category based on measured inhibition for Fc1cccc(COc2ccc(Nc3ncnc4cc(-c5ccc[nH]5)sc34)cc2Cl)c1 and give only the class name.
category 1

Assign a category based on measured inhibition for O=C1NC(=O)C(N2CCc3ccccc32)=C1c1ccc(Cl)cc1 and give only the class name.
category 3

Assign a category based on measured inhibition for Cn1cc(C=C2C(=O)Nc3cccnc32)c2ccccc21 and give only the class name.
category 3

Assign a category based on measured inhibition for N#Cc1c(NC(=O)c2cccc3ccccc23)sc2c1CCCC2 and give only the class name.
category 2

---
Assign a category based on measured inhibition for NCc1ccc(-c2nc(-c3ccc(Cl)c(O)c3)c(-c3ccncc3)[nH]2)cc1 and give only the class name.
category 3

Assign a category based on measured inhibition for CS(=O)(=O)CCNCc1ccc(-c2ccc3ncnc(Nc4ccc(OCc5cccc(F)c5)c(C(F)(F)F)c4)c3c2)o1 and give only the class name.
category 2

Assign a category based on measured inhibition for CC1=C(C(=O)Nc2ccc3[nH]ncc3c2)C(c2ccc(F)cc2)NC(=O)N1 (configuration not stated) and give only the class name.
category 1

Assign a category based on measured inhibition for O=C(Nc1n[nH]c2nc(-c3ccco3)c(Br)cc12)C1CC1 and give only the class name.
category 2

Assign a category based on measured inhibition for Nc1nc(-c2ccccn2)c(-c2ccc3ncccc3n2)s1 and give only the class name.
category 2

Assign a category based on measured inhibition for COc1cc2ncn(-c3cc(OCc4ccccc4Cl)c(C(N)=O)s3)c2cc1OC and give only the class name.
category 2

Assign a category based on measured inhibition for [O-][S+]1CCN(Cc2ccc(-c3ccc4ncnc(Nc5ccc(OCc6ccccc6)c(F)c5)c4c3)o2)CC1 and give only the class name.
category 1

Ref: ChEMBL document CHEMBL1961873
